- experimental.details: Human HepG2 cell viability assay in 384 well format
- Assay type: toxicity, cell-based
- Design: dose 125 nL, time 70.5 hour; concentration not given beside the values
- particulars: HepG2 cells, read-out: Inhibition
readout.label: cytotoxicity at 70.5 h
Please answer using the number first and the unit second.

Data request, read-out cytotoxicity at 70.5 h, for CCOc1ncccc1C(=O)N1CC=C(c2ccc(O)cc2)CC1 -6.39%

Reported cytotoxicity at 70.5 h, compound CCn1nc(C)c2ccn(CC(=O)NC3CCCC3)c(=O)c21 : ____ -1.39%

* * *

Let's look at some molecules and their measured cytotoxicity at 70.5 h.
- experimental.details: Human HepG2 cell viability assay in 384 well format
- Format: toxicity, cell-based
- Set-up: dose 125 nL, time 70.5 hour; concentration not given beside the values
- particulars: HepG2 cells, read-out: Inhibition
# number only, unit % dropped from output

Consider the reported cytotoxicity at 70.5 h for these molecules:
CC(C)c1ncc(CN2CCC(c3n[nH]cc3C(=O)N(C)C)C2)cn1 (configuration not stated); -2.3
C[C@H]1C[C@H]2CN(Cc3ccccn3)CC[C@@H]2O1; -3.43
Cc1ccc(C(=O)N(Cc2ccc(F)cc2F)C2CC2)c(=O)[nH]1; -2.76
Cc1cc(CN2CCN(C(=O)C3(C#N)CCCCC3)CC2)on1; -4.13
COCc1ccccc1NC(=O)[C@@H]1CCCN1C(=O)c1ccco1; -8.02

// cytotoxicity at 70.5 h lookup, key: CCN1CCC2(CCC1=O)CN(c1ccnc(SC)n1)CCN2C (configuration not stated) 3.52

Numbers sourced from ChEMBL document CHEMBL3507680.
